target: Axl (UniProt P30530); test: ELISA, 1:3 dilution
Sequence (P30530 26-451 limits assumed): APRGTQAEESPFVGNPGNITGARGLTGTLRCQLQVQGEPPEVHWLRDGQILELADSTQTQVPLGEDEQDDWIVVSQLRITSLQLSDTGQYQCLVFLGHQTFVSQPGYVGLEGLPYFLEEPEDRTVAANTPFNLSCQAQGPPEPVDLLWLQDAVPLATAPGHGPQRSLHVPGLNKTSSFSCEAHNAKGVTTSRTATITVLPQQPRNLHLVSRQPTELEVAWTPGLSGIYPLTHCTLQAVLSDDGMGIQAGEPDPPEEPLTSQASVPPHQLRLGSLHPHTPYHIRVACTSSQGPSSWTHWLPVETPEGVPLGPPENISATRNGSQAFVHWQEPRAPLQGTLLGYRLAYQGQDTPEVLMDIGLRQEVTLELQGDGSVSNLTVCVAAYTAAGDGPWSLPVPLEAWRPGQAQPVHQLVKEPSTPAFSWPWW
READOUT NAME: Affinity ELISA CPE mutant ratio (1:3, pH 6.0/7.4)
Please state the value as a number alone, without comment.

Example results:
LC-L096G (antibody, V domains shown) VH: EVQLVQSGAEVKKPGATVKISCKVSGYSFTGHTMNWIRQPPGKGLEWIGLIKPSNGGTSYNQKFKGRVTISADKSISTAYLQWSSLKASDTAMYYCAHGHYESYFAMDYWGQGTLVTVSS VL: DIQMTQSPSSLSASVGDRVTITCKASQDVSSAVAWYQQKPGQAPRLLIYWASTRHTGVPSRFSGSGSGTEFTLTISSLQPDDFATYYCQEHFSTPGTFGQGTKVEIK
2.17
HC-E102F (antibody, V domains shown) VH: EVQLVQSGAEVKKPGATVKISCKVSGYSFTGHTMNWIRQPPGKGLEWIGLIKPSNGGTSYNQKFKGRVTISADKSISTAYLQWSSLKASDTAMYYCAHGHYFSYFAMDYWGQGTLVTVSS VL: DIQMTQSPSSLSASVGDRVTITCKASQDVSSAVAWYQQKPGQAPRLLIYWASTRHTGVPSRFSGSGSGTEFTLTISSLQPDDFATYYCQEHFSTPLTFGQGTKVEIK
1.88

Would you kindly look at the next entry?
Problem: # return recorded Affinity ELISA CPE mutant ratio (1:3, pH 6.0/7.4) for input HC-F105T (antibody, V domains shown) VH: EVQLVQSGAEVKKPGATVKISCKVSGYSFTGHTMNWIRQPPGKGLEWIGLIKPSNGGTSYNQKFKGRVTISADKSISTAYLQWSSLKASDTAMYYCAHGHYESYTAMDYWGQGTLVTVSS VL: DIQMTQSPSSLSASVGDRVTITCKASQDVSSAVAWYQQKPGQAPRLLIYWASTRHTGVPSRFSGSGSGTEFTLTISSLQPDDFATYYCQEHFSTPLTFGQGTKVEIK
Solution: 3.46
